Source listed as paper PMC11208742.

target-or-system: HRD1 (HMG-CoA reductase degradation protein 1) (Homo sapiens)
Construct: GFP-tagged wild-type HRD1 expressed in 293T cells, cell lysate (MST); endogenous untagged HRD1 in RKO cell lysate (CETSA)
Sequence (Q86TM6 whole entry): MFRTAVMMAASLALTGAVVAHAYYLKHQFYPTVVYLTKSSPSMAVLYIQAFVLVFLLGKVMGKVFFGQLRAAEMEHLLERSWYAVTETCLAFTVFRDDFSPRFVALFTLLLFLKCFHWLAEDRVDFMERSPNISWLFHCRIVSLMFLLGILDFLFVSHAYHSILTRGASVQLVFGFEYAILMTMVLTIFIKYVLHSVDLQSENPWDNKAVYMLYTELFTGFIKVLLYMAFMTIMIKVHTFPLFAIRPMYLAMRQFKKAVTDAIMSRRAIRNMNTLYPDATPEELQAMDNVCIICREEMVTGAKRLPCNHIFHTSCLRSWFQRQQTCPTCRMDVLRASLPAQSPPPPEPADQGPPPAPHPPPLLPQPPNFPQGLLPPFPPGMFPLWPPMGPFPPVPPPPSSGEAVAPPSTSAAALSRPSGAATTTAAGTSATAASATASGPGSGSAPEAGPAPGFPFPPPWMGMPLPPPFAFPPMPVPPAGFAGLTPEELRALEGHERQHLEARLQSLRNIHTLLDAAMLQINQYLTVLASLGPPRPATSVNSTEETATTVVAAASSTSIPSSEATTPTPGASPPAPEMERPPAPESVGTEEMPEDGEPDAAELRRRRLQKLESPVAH
protocol-description: microscale thermophoresis, GFP-HRD1
readout-kind: Kd (µM)
The answer is to be given in µM; state only the numeric part.

(Q) Kd for COc1ccc(-c2cc(=O)c3c(OC)cc(OC)cc3o2)cc1 ?
(A) 8.02
